Test system: HeLa cells
Test: HeLa cell viability (CellTiter-Glo)
Outcome measure: Non-toxic concentrations

- Compound: "O=C(O)c1cc(O)c2c(c1)C(=O)c1cccc(O)c1C2=O"
  System: "HeLa cells"
  Result: "2.5 to 20 µM"
- Compound: "Cc1ccc2nc(NCCN)c3ncc(C)n3c2c1"
  System: "HeLa cells"
  Result: "0.24 to 15.6 µM"
- Compound: "CC1=C(CC(=O)O)c2cc(F)ccc2/C1=C\\c1ccc([S+](C)[O-])cc1 (stereo not shown)"
  System: "HeLa cells"
  Result: "8.75 to 70 µM"
- Compound: "C=CC[C@@H]1/C=C(\\C)C[C@H](C)C[C@H](OC)[C@H]2O[C@@](O)(C(=O)C(=O)N3CCCC[C@H]3C(=O)O[C@H](/C(C)=C/[C@@H]3CC[C@@H](O)[C@H](OC)C3)[C@H](C)[C@@H](O)CC1=O)[C@H](C)C[C@@H]2OC"
  System: "HeLa cells"
  Result: "0 to 4.96e+07 µM"
- Compound: "O=C(Nc1cc(C(F)(F)F)cc(C(F)(F)F)c1)c1cc(Cl)ccc1O"
  System: "HeLa cells"
  Result: "None"
- Compound: "CC1=C(CO)C(=O)O[C@@H]([C@@H](C)[C@H]2CC[C@H]3[C@@H]4C[C@H]5O[C@]56[C@@H](O)C=CC(=O)[C@]6(C)[C@H]4CC[C@]23C)C1"
  System: "HeLa cells"
  Result: "0 to 1.7e+07 µM"
- Compound: "COc1cc(/C=C/C(=O)CC(=O)/C=C/c2ccc(O)c(OC)c2)ccc1O"
  System: "HeLa cells"
  Result: "0 to 3.375e+07 µM"
- Compound: "Cc1ccc(S(=O)(=O)/C=C/C#N)cc1"
  System: "HeLa cells"
  Result: "6 to 96 µM"
- Compound: "NC(=O)Nc1sc(-c2ccc(F)cc2)cc1C(N)=O"
  System: "HeLa cells"
  Result: "0 to 3.83e+06 µM"
- Compound: "NC(=O)Nc1sc(-c2ccccc2)cc1C(N)=O"
  System: "HeLa cells"
  Result: "0 to 900000 µM"

src = paper PMC4721142
